Compiled record: pIC50 values for Fatty-acid amide hydrolase 1 (Homo sapiens, UniProt O00519) across several sources.
pIC50: −log10 of the molar value.
test readout: pIC50

compound: CC1CN(C(=O)OC(C(F)(F)F)C(F)(F)F)Cc2ccccc21 (centres unmarked)
test readout: pIC50
inequality sign: <
result value: 6.00
--
compound: COc1ccc(Cn2c(C)cc(C(=O)C(=O)Nc3ccnc(OC)c3)c2C)cc1
test readout: pIC50
inequality sign: =
result value: 5.39
--
compound: COC(=O)c1ccc(-c2cnc(C(=O)CCc3ccc(COc4ccccc4)cc3)o2)nc1
test readout: pIC50
inequality sign: =
result value: 9.10
--
compound: COC(=O)c1cccc(-c2cnc(C(=O)CCc3ccc(-c4ccc(CN5CCOCC5)cc4)cc3)o2)n1
test readout: pIC50
inequality sign: =
result value: 7.68
--
compound: COc1cc(NC(=O)C(=O)c2c(C)n(Cc3ccc(Cl)cc3)c3sc(Cl)cc23)ccn1
test readout: pIC50
inequality sign: =
result value: 7.03
--
compound: O=C(O)c1cccc(-c2cnc(C(=O)CCc3ccc(Oc4ccccc4)cc3)o2)n1
test readout: pIC50
inequality sign: =
result value: 8.57
--
compound: Cc1cc(C(=O)C(=O)Nc2cccnc2)c(C)n1Cc1ccc(Cl)cc1
test readout: pIC50
inequality sign: =
result value: 5.49
--
compound: Cc1c(C(=O)C(=O)Nc2cccc(Cl)c2)cc(-c2ccccc2)n1Cc1ccc(Cl)cc1
test readout: pIC50
inequality sign: <
result value: 4.30
--
compound: Cc1c(C(=O)C(=O)Nc2cccc(Cl)c2)c(-c2ccccc2)c(C)n1Cc1ccc(Cl)cc1
test readout: pIC50
inequality sign: <
result value: 5.30
--
compound: O=C(OC(C(F)(F)F)C(F)(F)F)N1CCc2cccc(Br)c2C1
test readout: pIC50
inequality sign: <
result value: 6.00
--
compound: O=C(Nc1noc2ccccc12)N1CCCC(Cc2ccc(F)cc2)C1 (centres unmarked)
test readout: pIC50
inequality sign: =
result value: 5.70
--
compound: COC(=O)c1ccc(-c2cnc(C(=O)CCc3ccc(Oc4ccccc4)cc3)o2)nc1
test readout: pIC50
inequality sign: =
result value: 8.52
--
compound: O=C(Nc1ccon1)N1CCCC(Cc2cccc(C(F)(F)F)c2)C1 (centres unmarked)
test readout: pIC50
inequality sign: =
result value: 5.15
